Where do the numbers come from? From PubChem BioAssay AID2551.

molecular target: Nuclear receptor ROR-gamma (Mus musculus) (UniProt P51450); assay: qHTS for inhibitors of ROR gamma transcriptional activity; conditions: Drosophila S2 Gal4-RORgamma UAS-luciferase reporter, 20 h; series mostly up to 53.6 µM; also: nearly all actives have a fitted effect of over 60% in size
Sequence (P51450 whole entry, looked up, the tested form may be a part): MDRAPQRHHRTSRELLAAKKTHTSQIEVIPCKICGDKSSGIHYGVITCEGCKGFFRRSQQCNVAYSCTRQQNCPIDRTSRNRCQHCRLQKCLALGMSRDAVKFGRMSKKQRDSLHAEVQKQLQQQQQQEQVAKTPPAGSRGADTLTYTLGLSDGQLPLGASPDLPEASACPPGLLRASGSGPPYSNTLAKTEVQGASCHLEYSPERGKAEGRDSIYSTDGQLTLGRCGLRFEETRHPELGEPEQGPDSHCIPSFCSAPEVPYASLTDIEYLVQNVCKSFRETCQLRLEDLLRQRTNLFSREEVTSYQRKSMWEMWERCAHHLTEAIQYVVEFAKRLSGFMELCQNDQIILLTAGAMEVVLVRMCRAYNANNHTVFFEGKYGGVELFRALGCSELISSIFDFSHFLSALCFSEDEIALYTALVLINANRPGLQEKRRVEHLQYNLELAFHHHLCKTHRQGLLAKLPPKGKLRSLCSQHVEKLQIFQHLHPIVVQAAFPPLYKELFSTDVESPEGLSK
The whole screen tested about 310,000 compounds, of which about 17,000 (5.5%) were called active. Not shown: some 11% with an inconclusive outcome. Calls follow the shape of the dose curve; as a rule, active = well fitted inhibition curve with a large enough effect; inconclusive = small, poorly fitted or top-dose-only effect, or effect the other way; inactive = no such curve, though single readings can be large or run the other way. Only a selection was taken, and actives are over-represented in it overall.
Your answer must be one of the following: class 1 = active, class 0 = inactive

Hi team, can someone confirm the assay call for Cc1ccc(S(=O)(=O)N(CC(=O)Nc2cccnc2)c2ccc(Br)cc2)cc1 ?
class 0

Can you look up the reported call for CCc1ccc(NC(=O)CCNS(=O)(=O)c2cccs2)cc1 for me?
class 0

Could you check what this test reported for Cc1cc(C)c2nc(N3CCC(C(=O)NCCN4CCOCC4)CC3)sc2c1 ?
class 0

In this assay, the call recorded for COc1ccc2c(CC(=O)N3CCc4cc(OC)c(OC)cc4C3)coc2c1 was what?
class 0

Please let me know the test result on file for O=C(NCc1ccc(F)cc1)C1CCN(C(=O)Nc2ccc(F)cc2)CC1 .
class 0

How was CCOc1cc(NC(=O)c2ccco2)c(OCC)cc1NC(=O)COc1ccccc1 classified in this test?
class 0

Hi, sorry to bother you, what did the test record for CCOC(=O)CC1COCCN1C(=O)c1cc(COc2ccc(F)c(F)c2)on1 (stereo not drawn) ?
class 0

Could you check what this test reported for Cc1cc(Cl)ccc1OCCCC(=O)NCc1ccccn1 ?
class 0

For this compound, state the assay outcome: COc1ccccc1N(CC(=O)Nc1ccccc1C(=O)N1CCCC1)S(C)(=O)=O
class 0

I would be grateful if you could indicate the recorded call for S=C(NCc1ccc(Cl)cc1)NC12CC3CC(CC(C3)C1)C2 .
class 1

Hi, do you know how COC(=O)c1c(C)[nH]c(C(=O)NCCc2ccc(S(N)(=O)=O)cc2)c1C came out in this test?
class 0

Query: recorded result category for Cc1nn(Cc2ccccc2)c(C)c1NS(=O)(=O)c1ccccc1 in this test
class 0

Which outcome was assigned to CCCOc1ccc(-c2c(C(=O)N/N=C/c3ccco3)nnn2-c2nonc2N)cc1 in this test?
class 1

What was the test verdict on O=C(N/N=C/c1ccc2c(c1)OCO2)C(=O)N1CCCC1 ?
class 0

Look up the recorded call for Nc1nonc1-n1nnc(C(=O)N/N=C/C2CCCCC2)c1-c1ccccc1 in this test.
class 0

Given CC(=O)c1c(O)cc2n(c1=O)-c1ccc(Cl)cc1C2(C)C , state the outcome it received in this test.
class 1

Called result for CCCCn1c(SCC(=O)N2CCOCC2)nc2c1c(=O)n(C)c(=O)n2C
class 0

What was the test verdict on Nc1nonc1-n1nnc(C(=O)N/N=C/c2c[nH]c3ccccc23)c1-c1ccccc1 ?
class 0

Test call, this compound: O=C(Nc1ccc(NC(=O)c2ccco2)c(Cl)c1)c1cccc([N+](=O)[O-])c1
class 0

Please indicate how the test categorized CCCCOC(=O)c1[nH]c(C)c(C(=O)OC)c1C .
class 0

How did this test come out for CC1(C(=O)N/N=C/c2cc3c(cc2Br)OCO3)CC1(Br)Br (stereo not drawn) ?
class 0

Give the logged outcome of this assay for the following compound: CCOc1cc(NC(=S)NCCCN(C)C)c(OCC)cc1NC(=O)C1CC1
class 0

Please share the test call associated with COc1ccccc1NC(=O)C1=C(C)Nc2ncnn2C1c1ccc(C)o1 (stereo not drawn) .
class 0

Just curious, what result did O=C(NC1CCN(C(=S)Nc2ccc(Cl)cc2)CC1)C1CCCCC1 get here?
class 0

How was Cc1cc(C(=O)NC2CCCc3c2cnn3-c2cccc(C)c2C)c(C)o1 (stereo not drawn) classified in this test?
class 0

# outcome recorded in this test, key = COC(=O)c1cc(Cl)c(NC(=O)c2ccco2)cc1OC
class 0

Any idea what this test logged for COc1ccccc1NC(=O)C1=C(C)Nc2nc3ccccc3n2C1c1cccs1 (stereo not drawn) ?
class 1

How did this test come out for COc1ccc(NC(=O)CCC(=O)Nc2cc(OC)c(NC(=O)c3ccco3)cc2OC)c(OC)c1 ?
class 0

Which outcome was assigned to O=C(NCc1ccc(Cl)cc1)NCc1ccc(Cl)cc1 in this test?
class 0

Any idea what this test logged for O=C(NCc1ccncc1)NC12CC3CC(CC(C3)C1)C2 ?
class 0

Look up the recorded call for COc1ccc(C(=O)NC(C)Cn2nc(C)cc2C)cc1OC1CCN(C(C)=O)CC1 (stereo not drawn) in this test.
class 0

Short answer needed: outcome of this test for Cc1c(OC(C)C(=O)NCC2CCC(C(=O)O)CC2)ccc2c1oc(=O)c1ccccc12 (stereo not drawn) ?
class 0

Per the records of this test, what outcome belongs to CSc1ccccc1OCc1cc(C(=O)N(C)CCc2c(C)n[nH]c2C)no1 ?
class 0

// return assay outcome for CCC1=C/C(=C\c2ccc3c(c2)OCO3)C(=O)S1
class 0

Hi, sorry to bother you, what did the test record for Cc1ccccc1OCC(=O)Nc1nnc(S(=O)(=O)N2CCCC2)s1 ?
class 0

Tell me the assay call for Cc1ccc(CN2CCNC(=O)C2CC(=O)NCc2csc(C(C)C)n2)cc1 (stereo not drawn) please.
class 0

Tell me the assay call for O=C(NC1CC1)C(Cc1ccccc1)NS(=O)(=O)c1ccccc1F (stereo not drawn) please.
class 0

Per the assay record, what outcome was assigned to Cc1ccc(C(=O)N/C(=C\c2ccc(F)cc2)C(=O)NCCN2CCOCC2)cc1 ?
class 0

Recorded test call requested for COc1cc([N+](=O)[O-])cc([N+](=O)[O-])c1NC(=O)N1CCOCC1
class 0

Record lookup: outcome of this test for CCOCC(=O)Nc1cc(OC)c(Cl)cc1OC ?
class 0

Would you mind telling me which call this test gave O=C(COc1ccc(Cl)cc1)NCCS(=O)(=O)N1CCN(c2ccc(F)cc2)CC1 ?
class 0

Recorded test outcome, item COc1ccc(-c2cc(C(F)(F)F)nc(S(C)(=O)=O)n2)cc1OC
class 1

Returns: the outcome recorded for COc1ccc2c(Cl)c(C(=O)NCc3ccco3)sc2c1 in this assay.
class 0
